These measurements were taken from ChEMBL document CHEMBL4049423.

Reported IC50 values for the following compounds.
subject.of.test: Eukaryotic initiation factor 4A-III (Homo sapiens, UniProt P38919)
Sequence (P38919 whole entry): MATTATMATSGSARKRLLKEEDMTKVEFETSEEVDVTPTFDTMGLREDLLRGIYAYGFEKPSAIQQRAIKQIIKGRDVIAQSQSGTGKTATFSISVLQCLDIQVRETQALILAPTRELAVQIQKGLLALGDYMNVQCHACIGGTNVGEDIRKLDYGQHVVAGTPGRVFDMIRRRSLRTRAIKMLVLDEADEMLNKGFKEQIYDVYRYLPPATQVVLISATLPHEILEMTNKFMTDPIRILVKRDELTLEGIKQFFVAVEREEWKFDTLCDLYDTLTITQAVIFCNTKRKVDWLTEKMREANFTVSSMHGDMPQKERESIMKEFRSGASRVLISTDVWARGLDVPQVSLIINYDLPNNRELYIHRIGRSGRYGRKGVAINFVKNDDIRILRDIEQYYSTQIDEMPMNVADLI
test.details: Inhibition of MLN51-induced full-length human recombinant His6-tagged eIF4A3 RNA dependent ATPase activity expressed in Escherichia coli BL21(DE3) using single stranded poly(U) RNA as substrate after 30 mins by ADP-Glo luminescence assay
Just the number in µM, nothing appended.

O=C(c1coc(-c2ccccc2)n1)N1CCN(C(=O)c2ccc(Cl)cc2)C(c2ccc(Cl)cc2)C1 (centres undefined) ... 69

# context switch: different compound, same IC50
Supply IC50 value. Item: Cc1c(C(=O)N2CCN(C(=O)c3ccc(Br)cc3)C(c3ccc(Cl)cc3)C2)cnn1-c1cccc(C#N)c1 (centres undefined)
0.58

###

subject.of.test: Eukaryotic initiation factor 4A-III (Homo sapiens, UniProt P38919)
test.details: Inhibition of MLN51-induced full-length human recombinant His6-tagged eIF4A3 RNA dependent ATPase activity expressed in Escherichia coli BL21(DE3) using single stranded poly(U) RNA as substrate after 30 mins by ADP-Glo luminescence assay
pIC50: −log10 of the molar value.
Where pIC50 equals or exceeds 6, the correct label is label 1; where it does not, the label is label 0.

O=C1C(c2ccc(Cl)cc2)N(C(=O)c2ccc(Cl)cc2)CCN1Cc1cnc(-c2ccccc2)o1 (stereo not drawn) ... label 0
O=C(c1cnc(-c2ccccc2)o1)N1CCN(C(=O)c2ccccc2)C(c2ccc(Cl)cc2)C1 (stereo not drawn) ... label 0
Cc1c(C(=O)N2CCN(C(=O)c3ccc(Cl)cc3)C(c3ccc(Cl)cc3)C2)cnn1-c1ccccc1 (stereo not drawn) ... label 0
N#Cc1cccc(-c2ncc(C(=O)N3CCN(C(=O)c4ccc(Cl)cc4)C(c4ccc(Cl)cc4)C3)o2)c1 (stereo not drawn) ... label 1
O=C(c1cnc(-c2ccccc2)o1)N1CCN(C(=O)c2ccc(Cl)cc2)C(C2CCCCC2)C1 (stereo not drawn) ... label 0

Could you now look at the following compound, please?
Test whether the compound N#Cc1ccccc1-c1ncc(C(=O)N2CCN(C(=O)c3ccc(Cl)cc3)C(c3ccc(Cl)cc3)C2)o1 (stereo not drawn) records pIC50 of 6 or higher.
label 0

###

subject.of.test: UniProt:P38919
test.details: Inhibition of eIF4A3 (unknown origin) expressed in HEK293T cells assessed as NMD suppression at 10 uM after 6 hrs by luciferase reporter gene assay relative to control
Format: cell-based
assay.readout: fold change (FC)
Respond with the number and no other words.

O=C(c1cnn2cc(Br)ccc12)N1CCN(C(=O)c2ccc(Br)cc2)C(c2ccc(Cl)cc2)C1 (configuration not stated) ... 1.9
N#Cc1ccnc(-c2ncc(C(=O)N3CCN(C(=O)c4ccc(Br)cc4)C(c4ccc(Cl)cc4)C3)o2)c1 (configuration not stated) ... 1.8
N#Cc1cccc(-c2ncc(C(=O)N3CCN(C(=O)c4ccc(Br)cc4)C(c4ccc(Cl)cc4)C3)o2)c1 (configuration not stated) ... 1.8
COc1ccc2c(C(=O)N3CCN(C(=O)c4ccc(Br)cc4)C(c4ccc(Cl)cc4)C3)cnn2c1 (configuration not stated) ... 1.7
Cc1c(C(=O)N2CCN(C(=O)c3ccc(Br)cc3)[C@H](c3ccc(Cl)cc3)C2)cnn1-c1cccc(C#N)c1 ... 1.34

State its fold change (FC) for this molecule: `Cc1c(C(=O)N2CCN(C(=O)c3ccc(Br)cc3)[C@@H](c3ccc(Cl)cc3)C2)cnn1-c1cccc(C#N)c1`
3.69

Please report fold change (FC) for the following molecule: Cc1c(C(=O)N2CCN(C(=O)c3ccc(Br)cc3)C(c3ccc(Cl)cc3)C2)cnn1-c1cccc(C#N)c1 (configuration not stated)
2.3

###

subject.of.test: U5 small nuclear ribonucleoprotein 200 kDa helicase (Homo sapiens)
Sequence (O75643 whole entry): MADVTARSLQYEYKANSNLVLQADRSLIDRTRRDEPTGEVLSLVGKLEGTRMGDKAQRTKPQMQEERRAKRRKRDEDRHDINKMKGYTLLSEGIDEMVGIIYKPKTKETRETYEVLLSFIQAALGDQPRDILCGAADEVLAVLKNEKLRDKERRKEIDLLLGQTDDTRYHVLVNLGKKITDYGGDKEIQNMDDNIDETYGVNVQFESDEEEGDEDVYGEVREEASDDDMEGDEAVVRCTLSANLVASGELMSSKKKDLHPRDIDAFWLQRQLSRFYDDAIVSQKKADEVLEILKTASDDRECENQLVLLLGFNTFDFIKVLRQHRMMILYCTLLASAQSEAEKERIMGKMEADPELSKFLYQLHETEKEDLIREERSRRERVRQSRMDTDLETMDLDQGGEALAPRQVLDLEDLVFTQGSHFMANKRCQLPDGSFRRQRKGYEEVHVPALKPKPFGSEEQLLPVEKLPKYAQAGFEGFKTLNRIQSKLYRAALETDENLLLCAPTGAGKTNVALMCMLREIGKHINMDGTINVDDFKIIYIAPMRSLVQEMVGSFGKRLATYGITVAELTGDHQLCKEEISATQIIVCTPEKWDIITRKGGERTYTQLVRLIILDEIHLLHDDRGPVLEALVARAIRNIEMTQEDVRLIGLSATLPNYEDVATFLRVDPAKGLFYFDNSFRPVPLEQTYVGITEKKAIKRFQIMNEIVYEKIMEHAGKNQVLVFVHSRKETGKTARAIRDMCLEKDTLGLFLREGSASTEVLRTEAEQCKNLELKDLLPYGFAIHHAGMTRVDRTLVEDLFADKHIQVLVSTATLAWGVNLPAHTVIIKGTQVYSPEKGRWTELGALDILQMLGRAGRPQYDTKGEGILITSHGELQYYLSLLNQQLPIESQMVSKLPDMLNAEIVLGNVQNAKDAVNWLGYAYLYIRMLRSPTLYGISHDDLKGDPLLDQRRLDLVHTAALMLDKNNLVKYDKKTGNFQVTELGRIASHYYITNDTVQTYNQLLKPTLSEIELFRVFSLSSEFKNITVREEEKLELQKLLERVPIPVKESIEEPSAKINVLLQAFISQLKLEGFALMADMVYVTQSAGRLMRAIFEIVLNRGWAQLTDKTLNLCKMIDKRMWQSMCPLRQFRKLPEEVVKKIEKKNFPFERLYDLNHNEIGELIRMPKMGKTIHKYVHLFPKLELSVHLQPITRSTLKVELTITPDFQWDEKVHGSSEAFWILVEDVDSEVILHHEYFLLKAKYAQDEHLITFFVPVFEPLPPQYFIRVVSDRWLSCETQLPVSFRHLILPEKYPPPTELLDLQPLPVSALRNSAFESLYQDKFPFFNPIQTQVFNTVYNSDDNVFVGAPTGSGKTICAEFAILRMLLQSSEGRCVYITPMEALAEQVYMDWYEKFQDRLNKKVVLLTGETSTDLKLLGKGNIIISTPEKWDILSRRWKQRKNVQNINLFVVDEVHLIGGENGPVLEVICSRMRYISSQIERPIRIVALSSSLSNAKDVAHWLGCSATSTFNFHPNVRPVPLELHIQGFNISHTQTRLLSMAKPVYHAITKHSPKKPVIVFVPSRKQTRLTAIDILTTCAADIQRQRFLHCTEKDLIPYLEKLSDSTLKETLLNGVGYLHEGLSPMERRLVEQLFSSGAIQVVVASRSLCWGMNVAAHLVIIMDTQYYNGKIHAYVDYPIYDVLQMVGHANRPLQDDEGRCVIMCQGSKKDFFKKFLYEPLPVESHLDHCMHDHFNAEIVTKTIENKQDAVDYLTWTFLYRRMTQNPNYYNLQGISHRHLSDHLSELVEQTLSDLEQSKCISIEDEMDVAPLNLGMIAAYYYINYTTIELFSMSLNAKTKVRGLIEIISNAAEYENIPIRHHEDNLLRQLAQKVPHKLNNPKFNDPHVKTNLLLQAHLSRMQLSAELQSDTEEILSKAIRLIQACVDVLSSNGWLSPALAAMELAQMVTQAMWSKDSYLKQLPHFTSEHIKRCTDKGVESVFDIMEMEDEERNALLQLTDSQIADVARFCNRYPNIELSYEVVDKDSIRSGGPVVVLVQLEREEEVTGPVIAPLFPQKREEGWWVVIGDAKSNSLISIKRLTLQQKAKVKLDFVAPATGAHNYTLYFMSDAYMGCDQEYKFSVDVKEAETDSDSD
test.details: Inhibition of human recombinant full-length His-tagged BRR2 RNA dependent ATPase activity expressed in baculovirus infected Sf9 insect cells using single stranded poly(U) RNA as substrate after 30 mins by ADP-Glo luminescence assay
pIC50: −log10 of the molar value.
assay.readout: pIC50

Complete the entry with pIC50 for `Cc1c(C(=O)N2CCN(C(=O)c3ccc(Br)cc3)[C@@H](c3ccc(Cl)cc3)C2)cnn1-c1cccc(C#N)c1`
< 4.00

###

subject.of.test: Eukaryotic initiation factor 4A-III (Homo sapiens)
test.details: Inhibition of MLN51-induced full-length human recombinant His6-tagged eIF4A3 RNA dependent ATPase activity expressed in Escherichia coli BL21(DE3) using single stranded poly(U) RNA as substrate after 30 mins by ADP-Glo luminescence assay
pIC50: −log10 of the molar value.
Parameter threshold = 6. Response is TRUE when pIC50 meets or exceeds it, else FALSE.

N#Cc1ccc(-c2ncc(C(=O)N3CCN(C(=O)c4ccc(Cl)cc4)C(c4ccc(Cl)cc4)C3)o2)cc1 (stereo not drawn) ... FALSE
O=C(c1cnn2cc(Br)ccc12)N1CCN(C(=O)c2ccc(Br)cc2)[C@@H](c2ccc(Cl)cc2)C1 ... TRUE
O=C(c1cnc(-c2ccccc2)o1)N1CCN(C(=O)c2ccc(Cl)cc2)C(c2cccc(Cl)c2)C1 (stereo not drawn) ... FALSE
N#Cc1ccnc(-c2ncc(C(=O)N3CCN(C(=O)c4ccc(Br)cc4)C(c4ccc(Cl)cc4)C3)o2)c1 (stereo not drawn) ... TRUE
O=C(c1c[nH]c2ccccc12)N1CCN(C(=O)c2ccc(Cl)cc2)C(c2ccc(Cl)cc2)C1 (stereo not drawn) ... FALSE
O=C(c1cnc(-c2ccccc2)o1)N1CCN(C(=O)c2ccc(Cl)cc2)C(c2ccccc2Cl)C1 (stereo not drawn) ... FALSE

Has O=C(c1ccc(Cl)cc1)N1CCN(Cc2cnc(-c3ccccc3)o2)CC1c1ccc(Cl)cc1 (stereo not drawn) a recorded pIC50 greater than or equal to 6?
FALSE

###

subject.of.test: ATP-dependent RNA helicase DHX29 (Homo sapiens, UniProt Q7Z478)
Sequence (Q7Z478 whole entry): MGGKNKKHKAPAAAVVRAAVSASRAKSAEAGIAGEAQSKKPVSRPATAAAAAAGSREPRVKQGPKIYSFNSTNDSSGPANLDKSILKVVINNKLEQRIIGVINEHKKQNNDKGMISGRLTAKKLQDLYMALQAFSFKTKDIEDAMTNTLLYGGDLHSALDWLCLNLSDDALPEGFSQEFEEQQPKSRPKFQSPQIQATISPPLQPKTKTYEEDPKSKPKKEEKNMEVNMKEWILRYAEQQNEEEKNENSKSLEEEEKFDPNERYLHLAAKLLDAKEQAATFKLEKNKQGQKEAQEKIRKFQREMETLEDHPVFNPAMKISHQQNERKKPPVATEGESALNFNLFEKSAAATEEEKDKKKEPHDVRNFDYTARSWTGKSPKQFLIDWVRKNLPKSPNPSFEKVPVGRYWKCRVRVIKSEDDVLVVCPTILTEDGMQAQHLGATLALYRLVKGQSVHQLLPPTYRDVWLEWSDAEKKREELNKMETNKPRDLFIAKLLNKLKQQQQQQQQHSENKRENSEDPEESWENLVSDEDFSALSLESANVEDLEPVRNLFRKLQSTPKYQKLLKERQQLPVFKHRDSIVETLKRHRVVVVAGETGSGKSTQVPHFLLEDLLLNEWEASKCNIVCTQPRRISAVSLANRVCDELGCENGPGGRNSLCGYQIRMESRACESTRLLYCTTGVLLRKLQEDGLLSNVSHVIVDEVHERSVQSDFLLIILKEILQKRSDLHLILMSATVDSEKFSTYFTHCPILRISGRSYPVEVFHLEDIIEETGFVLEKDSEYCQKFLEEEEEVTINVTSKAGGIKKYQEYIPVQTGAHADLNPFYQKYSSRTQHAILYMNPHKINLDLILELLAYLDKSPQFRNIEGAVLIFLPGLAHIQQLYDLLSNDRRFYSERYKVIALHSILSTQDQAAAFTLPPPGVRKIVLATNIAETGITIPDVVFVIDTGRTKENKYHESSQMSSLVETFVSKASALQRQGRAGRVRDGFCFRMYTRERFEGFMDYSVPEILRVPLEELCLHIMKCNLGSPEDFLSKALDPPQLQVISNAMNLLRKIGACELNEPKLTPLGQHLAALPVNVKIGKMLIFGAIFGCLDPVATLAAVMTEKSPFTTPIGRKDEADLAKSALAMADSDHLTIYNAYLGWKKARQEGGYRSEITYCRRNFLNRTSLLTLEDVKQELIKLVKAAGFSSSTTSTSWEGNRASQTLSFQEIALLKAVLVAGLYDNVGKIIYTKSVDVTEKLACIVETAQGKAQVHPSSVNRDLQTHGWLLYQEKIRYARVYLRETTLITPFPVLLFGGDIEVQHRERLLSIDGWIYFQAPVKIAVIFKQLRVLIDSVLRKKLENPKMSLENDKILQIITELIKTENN
test.details: Inhibition of human recombinant full-length FLAG-His-tagged DHX29 RNA dependent ATPase activity expressed in baculovirus infected Sf9 insect cells using single stranded poly(U) RNA as substrate after 30 mins by ADP-Glo luminescence assay
assay.readout: IC50

Find the measured IC50 of `Cc1c(C(=O)N2CCN(C(=O)c3ccc(Br)cc3)[C@@H](c3ccc(Cl)cc3)C2)cnn1-c1cccc(C#N)c1` with ATP-dependent RNA helicase DHX29 (Homo sapiens, UniProt Q7Z478) as test system.
> 100 µM

###

Entries and their IC50
subject.of.test: Eukaryotic initiation factor 4A-III (Homo sapiens, UniProt P38919)
test.details: Inhibition of MLN51-induced full-length human recombinant His6-tagged eIF4A3 RNA dependent ATPase activity expressed in Escherichia coli BL21(DE3) using single stranded poly(U) RNA as substrate after 30 mins by ADP-Glo luminescence assay
Write the answer as a number in µM, unit excluded.

O=C(c1cnn2cccc(Br)c12)N1CCN(C(=O)c2ccc(Cl)cc2)C(c2ccc(Cl)cc2)C1 (stereo not given) ... 8.9
O=C(c1cnn2cc(Br)ccc12)N1CCN(C(=O)c2ccc(Br)cc2)[C@H](c2ccc(Cl)cc2)C1 ... 60
O=C(c1cnn2cc(Br)ccc12)N1CCN(C(=O)c2ccc(Br)cc2)C(c2ccc(Cl)cc2)C1 (stereo not given) ... 0.42
N#Cc1cccc(-c2ncc(C(=O)N3CCN(C(=O)c4ccc(Br)cc4)C(c4ccc(Cl)cc4)C3)o2)c1 (stereo not given) ... 0.36

Please list IC50 recorded for the compound O=C(c1cnc(-c2ccccc2)o1)N1CCN(C(=O)c2ccc(Cl)cc2)C(c2ccc(Cl)cc2)C1 (stereo not given)
2.2

###

subject.of.test: Eukaryotic initiation factor 4A-II (Homo sapiens, UniProt Q14240)
Sequence (Q14240 whole entry): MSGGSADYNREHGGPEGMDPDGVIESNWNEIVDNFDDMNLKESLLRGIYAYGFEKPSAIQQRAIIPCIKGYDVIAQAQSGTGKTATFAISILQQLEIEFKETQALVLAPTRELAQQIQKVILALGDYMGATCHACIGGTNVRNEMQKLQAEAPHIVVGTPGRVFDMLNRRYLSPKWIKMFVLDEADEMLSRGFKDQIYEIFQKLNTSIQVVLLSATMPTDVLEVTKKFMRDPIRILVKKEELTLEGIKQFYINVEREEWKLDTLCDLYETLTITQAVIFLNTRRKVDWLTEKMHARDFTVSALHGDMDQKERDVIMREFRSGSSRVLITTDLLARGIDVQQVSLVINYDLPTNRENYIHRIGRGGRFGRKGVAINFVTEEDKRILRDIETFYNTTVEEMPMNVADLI
test.details: Inhibition of eIF4G-induced human recombinant His6-tagged eIF4A2 RNA dependent ATPase activity using single stranded poly(U) RNA as substrate after 40 mins by ADP-Glo luminescence assay
assay.readout: IC50

System Eukaryotic initiation factor 4A-II (Homo sapiens, UniProt Q14240). Read-out IC50. Item `Cc1c(C(=O)N2CCN(C(=O)c3ccc(Br)cc3)[C@@H](c3ccc(Cl)cc3)C2)cnn1-c1cccc(C#N)c1` . Report value.
> 100 µM

###

subject.of.test: Eukaryotic initiation factor 4A-III (Homo sapiens, UniProt P38919)
test.details: Inhibition of MLN51-induced full-length human recombinant His6-tagged eIF4A3 RNA dependent ATPase activity expressed in Escherichia coli BL21(DE3) using single stranded poly(U) RNA as substrate after 30 mins by ADP-Glo luminescence assay
Assign labels as follows, please: T for IC50 below 2000 nM; F for IC50 equal to or exceeding 2000 nM.

For orientation, consider the following solved cases.
O=C(c1cnn(-c2ccccc2)c1)N1CCN(C(=O)c2ccc(Cl)cc2)C(c2ccc(Cl)cc2)C1 (stereo not drawn) ... F
O=C(c1ccn(-c2ccccc2)n1)N1CCN(C(=O)c2ccc(Cl)cc2)C(c2ccc(Cl)cc2)C1 (stereo not drawn) ... F
O=C(c1cnc(-c2ccccc2)o1)N1CCN(C(=O)c2ccccc2Cl)C(c2ccc(Cl)cc2)C1 (stereo not drawn) ... F

Say whether its IC50 is strictly beneath 2000 nM. Entry: N#Cc1ccc2c(C(=O)N3CCN(C(=O)c4ccc(Br)cc4)C(c4ccc(Cl)cc4)C3)cnn2c1 (stereo not drawn)
F

Threshold test, IC50 < 2000 nM: O=C(c1cnn2c(Br)cccc12)N1CCN(C(=O)c2ccc(Cl)cc2)C(c2ccc(Cl)cc2)C1 (stereo not drawn)
T

Confirm or reject: IC50 of O=C(c1cnn2ccccc12)N1CCN(C(=O)c2ccc(Cl)cc2)C(c2ccc(Cl)cc2)C1 (stereo not drawn) lies strictly below 2000 nM
T

Hi there! Is IC50 for O=C(c1cnn2ccc(Br)cc12)N1CCN(C(=O)c2ccc(Cl)cc2)C(c2ccc(Cl)cc2)C1 (stereo not drawn) below 2000 nM, do you know?
T

Does O=C(c1n[nH]c2ccccc12)N1CCN(C(=O)c2ccc(Cl)cc2)C(c2ccc(Cl)cc2)C1 (stereo not drawn) have IC50 strictly under 2000 nM?
F
